Target: GPR139 (Homo sapiens, UniProt Q6DWJ6)
Assay: GPR139 Agonist titration / agonist counterscreen assay (calcium detection, HEK-GPR139 cells)
Format: cell-based
Design: expressed in transfected cells; host or cells: HEK Aequorin cells, Maxcyte transient transfection
Conditions: GPR139 Agonist Activity; fitted dose-response curve
I'd appreciate it if you could supply Hill Slope values for the items below.
Would you mind answering with just the numeric figure?

According to the records, this molecule CN(Cc1cccs1)C(=O)CN1C(=O)NC(C)(c2ccc3c(c2)OCO3)C1=O (stereo not drawn) displays Hill Slope of 0.64

According to the records, this molecule CC1(c2ccc3ccccc3c2)NC(=O)C(CC(=O)NCc2ccco2)C1=O (stereo not drawn) displays Hill Slope of 0.17

According to the records, this molecule COc1ccc(CCNC(=O)c2cccc(-c3ccc(OC)nc3)c2)cc1 displays Hill Slope of 0.44

According to the records, this molecule O=C(NCCn1ccc2ccccc21)c1cccc(Br)c1 displays Hill Slope of 0.57

According to the records, this molecule COc1ccc(CCNC(=O)Nc2ccc(C)cc2)cc1 displays Hill Slope of 0.62

According to the records, this molecule COc1cc(-c2nnc(COc3ccc(Cl)cc3C)o2)cc(OC)c1OC displays Hill Slope of 0.62

According to the records, this molecule Cc1ccc2c(c1)CCCN2CC(=O)N(C)c1c(N)n(Cc2ccccc2)c(=O)[nH]c1=O displays Hill Slope of 0.89

According to the records, this molecule O=C(CN1CCN(Cc2ccccc2F)C1=O)NCCc1ccc(Cl)cc1 displays Hill Slope of 0.81

According to the records, this molecule CCC1CCCCN1C(=O)CN1C(=O)NC(C)(c2ccc3ccccc3c2)C1=O (stereo not drawn) displays Hill Slope of 0.52

----------
Target: GPR139 (Homo sapiens, UniProt Q6DWJ6)
Sequence (Q6DWJ6 1-353): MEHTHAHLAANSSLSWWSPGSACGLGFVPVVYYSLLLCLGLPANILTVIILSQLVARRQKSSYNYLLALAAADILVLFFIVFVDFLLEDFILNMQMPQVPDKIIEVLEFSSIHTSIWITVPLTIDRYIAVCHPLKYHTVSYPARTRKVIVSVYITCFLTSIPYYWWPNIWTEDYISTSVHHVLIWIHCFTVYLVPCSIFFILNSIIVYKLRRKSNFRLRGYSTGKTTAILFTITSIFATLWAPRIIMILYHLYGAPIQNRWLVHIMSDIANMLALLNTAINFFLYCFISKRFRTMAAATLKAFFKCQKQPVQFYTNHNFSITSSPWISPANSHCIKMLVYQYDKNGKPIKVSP
Test: GPR139 Agonist titration / agonist counterscreen assay (calcium detection, HEK-GPR139 cells)
Format: cell-based
Design: expressed in transfected cells; host or cells: HEK Aequorin cells, Maxcyte transient transfection
Conditions: GPR139 Agonist Activity
Label scheme for Lipophilic Efficiency (logD): lower than 4 is no, 4 and above is yes.

Answer whether Lipophilic Efficiency (logD) of COc1ccc(CCn2nc(-c3cccnc3)[nH]c2=O)cc1 [SR-01000335115] is greater than or equal to 4. no

Answer whether Lipophilic Efficiency (logD) of COc1cc(-c2noc(CCC(=O)Nc3cccc(C)c3C)n2)cc(OC)c1OC [SR-01000139458] is greater than or equal to 4. no

Answer whether Lipophilic Efficiency (logD) of COc1ccc(SCC(=O)NNC(=S)Nc2ccccc2)cc1 [SR-01000526835] is greater than or equal to 4. no

Answer whether Lipophilic Efficiency (logD) of CCCc1ccc(NC(=O)CCc2nc3c(c(=O)n2C)CCC3)cc1 [SR-01000017533] is greater than or equal to 4. no

Answer whether Lipophilic Efficiency (logD) of COc1ccc(CSc2nnc(-c3cccnc3)n2N)cc1 [SR-01000284323] is greater than or equal to 4. yes

Answer whether Lipophilic Efficiency (logD) of Cc1cc(-c2nnc(NC(=O)CCc3ccccc3)o2)n(C)n1 [SR-01000920602] is greater than or equal to 4. yes

Answer whether Lipophilic Efficiency (logD) of O=C(Cn1ncn2c(cc3sccc32)c1=O)NCCc1ccc(Cl)cc1 [SR-01000099712] is greater than or equal to 4. no

Answer whether Lipophilic Efficiency (logD) of O=C(CNc1nnc(CCCOc2ccc(Cl)cc2Cl)o1)Nc1nccs1 [SR-01000280669] is greater than or equal to 4. no

Answer whether Lipophilic Efficiency (logD) of COc1cc(C(=O)NNC(=O)CSc2ccc(C)cc2)cc(OC)c1C [SR-01000070170] is greater than or equal to 4. no

Answer whether Lipophilic Efficiency (logD) of O=c1cc(-c2ccccc2)[nH]c2nc(OCc3cccc([N+](=O)[O-])c3)nn12 [SR-01000289377] is greater than or equal to 4. no

Answer whether Lipophilic Efficiency (logD) of Cc1cccc(-n2cnc3cc(C(=O)NCc4ccc5c(c4)OCO5)ccc32)c1 [SR-01000579592] is greater than or equal to 4. no

Answer whether Lipophilic Efficiency (logD) of COc1ccc(C)cc1NC(=O)NNC(=O)C(C)Oc1ccc(F)cc1Cl (stereo not drawn) [SR-01000277633] is greater than or equal to 4. no

Answer whether Lipophilic Efficiency (logD) of COc1ccc(Cl)cc1C(=O)NNC(=O)CCc1ccc([N+](=O)[O-])cc1 [SR-01000054340] is greater than or equal to 4. no

Answer whether Lipophilic Efficiency (logD) of CN(CCC(=O)NCC1Cc2cccc(-c3ccccn3)c2O1)C1CCS(=O)(=O)C1 (stereo not drawn) [SR-01000193031] is greater than or equal to 4. yes

Answer whether Lipophilic Efficiency (logD) of CC(C)CCNC(=O)CN1CCN(Cc2ccc(F)cc2Cl)C1=O [SR-01000161248] is greater than or equal to 4. yes

Answer whether Lipophilic Efficiency (logD) of COc1ccccc1CN1CCNC(=O)C1CC(=O)NCCCN1CCc2ccccc21 (stereo not drawn) [SR-01000176838] is greater than or equal to 4. yes

Answer whether Lipophilic Efficiency (logD) of Cc1ccc(CNC(=O)Cn2nc(-c3ccc(C)cc3)ccc2=O)cc1 [SR-01000145456] is greater than or equal to 4. no

Answer whether Lipophilic Efficiency (logD) of Cc1ccccc1SCC(=O)NNC(=O)C1CCCCC1 [SR-01000070173] is greater than or equal to 4. no
